Cited source: patent US8846698B2

- targetDesc: UniProt P04629
- Sequence (P04629 441-796): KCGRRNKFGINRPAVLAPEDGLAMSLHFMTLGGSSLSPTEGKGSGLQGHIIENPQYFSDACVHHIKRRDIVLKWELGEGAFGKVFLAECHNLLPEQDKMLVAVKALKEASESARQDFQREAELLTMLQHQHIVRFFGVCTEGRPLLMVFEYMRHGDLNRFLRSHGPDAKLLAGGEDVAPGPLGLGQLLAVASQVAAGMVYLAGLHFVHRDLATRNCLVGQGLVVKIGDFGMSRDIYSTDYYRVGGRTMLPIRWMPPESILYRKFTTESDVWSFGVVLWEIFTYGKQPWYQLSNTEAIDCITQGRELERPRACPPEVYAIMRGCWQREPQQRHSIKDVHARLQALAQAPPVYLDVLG
- test: Isolated TRK enzyme assay (HTRF KinEASE-TK), TRKA
- Assay type: biochemical
- conditionLabel: isolated TRKA enzyme; read-out: TrkA enzyme potency
pIC50: −log10 of the molar value.
pIC50 below 8 gives not fulfilled; pIC50 at or above it gives fulfilled.

In [3]: df
Out[3]:
                                   compound          group
0  CC(C)(C)n1cc(C(=O)c2cncc(NC(=O)Cn3ccc(C4CC4)n3)c2)c2cncnc21      fulfilled
1  CC(C)(CO)n1cc(C(=O)c2cncc(NC(=O)Cc3ccc(Cl)cn3)c2)c2cncnc21      fulfilled
2  C[C@H](CO)n1cc(C(=O)c2cncc(NC(=O)Cn3ccc(C(F)(F)F)n3)c2)c2cncnc21  not fulfilled
3  C[C@H](CO)n1cc(C(=O)c2cncc(NC(=O)Cc3ccc(Cl)cc3)c2)c2cncnc21  not fulfilled
4  C[C@H](CO)n1cc(C(=O)c2cncc(NC(=O)Cn3cc(C4CC4)nn3)c2)c2cncnc21  not fulfilled

// query Hello, I need to know if CC(CO)n1cc(C(=O)c2cncc(NC(=O)Cc3ccc(F)cn3)c2)c2cnc(N)nc21 (single isomer, unassigned) [Example 37] has measured pIC50 not below 8. Thanks!
// result not fulfilled

// query Hello, I need to know if "CC(C)(C)n1cc(C(=O)c2cncc(NC(=O)Cc3ccc(Cl)cn3)c2)c2cncnc21" has measured pIC50 not below 8. Thanks!
// result fulfilled
